These measurements were taken from patent US4068070A.

system: coronary sinus oxygen tension; test: Effects on coronary sinus oxygen tension; type: in vivo, mongrel adult dogs; conditions: 2.0 mg/kg i.v., 5 min
Structures can show the parent of a compound that is named as a salt.
# Lookup of reported Changes(%) of basal values, coronary sinus oxygen tension keyed by entry

These solved cases illustrate the format of a correct answer.
[[record]]
compound = "CCOC(=O)CN1CCN(C(C#N)c2ccc(OC)c(OC)c2)CC1 (stereo not shown)"
system_name = "coronary sinus oxygen tension"
endpoint_result = "+26.7%"

[[record]]
compound = "COc1ccc(C(C#N)N2CCN(CC(=O)N3CCCC3)CC2)cc1OC (stereo not shown)"
system_name = "coronary sinus oxygen tension"
endpoint_result = "+2.8%"

[[record]]
compound = "COc1ccc(C(C#N)N2CCCN(CC=Cc3ccccc3)CC2)cc1OC (stereo not shown)"
system_name = "coronary sinus oxygen tension"
endpoint_result = "+1.1%"

[[record]]
compound = "CCOC(=O)N1CCN(C(C#N)c2ccc(OC)c(OC)c2)CC1 (stereo not shown)"
system_name = "coronary sinus oxygen tension"
endpoint_result = "+13.8%"

[[record]]
compound = "COc1ccc(C(C#N)N2CCN(CC=Cc3ccccc3)CC2)cc1OC (stereo not shown)"
system_name = "coronary sinus oxygen tension"
endpoint_result = "+0.5%"

[[record]]
compound = "COc1ccc(CN2CCNCC2)c(OC)c1OC [Vastarel F, dihydrochloride, reference compound]"
system_name = "coronary sinus oxygen tension"
endpoint_result = "+2.0%"


Now turn to the next compound.
Inquiry: What measured Changes(%) of basal values, coronary sinus oxygen tension goes with COc1ccc(C(C#N)N2CCNCC2)cc1OC (stereo not shown) ?
Reply text: -1.1%

---

# Lookup of reported Changes(%) of basal values, heart rate keyed by entry
test system: heart rate; experiment: Effects on heart rate; format: in vivo, mongrel adult dogs; conditions: 6.0 mg/kg i.v., 30 min
Lab book: enter the figure in %, no units written.

These solved cases illustrate the format of a correct answer.
[[record]]
molecule = "COc1ccc(C(C#N)N2CCNCC2)cc1OC (centres unmarked)"
measurement_unit = "%"
endpoint_result = -2.0

[[record]]
molecule = "COc1ccc(C(C#N)N2CCN(CC=Cc3ccccc3)CC2)cc1OC (centres unmarked)"
measurement_unit = "%"
endpoint_result = -0.5

[[record]]
molecule = "COc1ccc(C(C#N)N2CCCN(CC=Cc3ccccc3)CC2)cc1OC (centres unmarked)"
measurement_unit = "%"
endpoint_result = -0.8


Now turn to the next molecule.
Inquiry: What measured Changes(%) of basal values, heart rate goes with COc1ccc(C(C#N)N2CCN(CC(=O)N3CCCC3)CC2)cc1OC (centres unmarked) ?
Reply text: 0

---

system: arterial mean blood pressure; assay: Effects on arterial mean blood pressure; assay type: in vivo, mongrel adult dogs; conditions: 6.0 mg/kg i.v., 30 min
# Lookup of reported Changes (%) of basal values, arterial mean blood pressure keyed by entry
Please answer using a numeric value trailed by its unit.

[[record]]
compound = "COc1ccc(C(C#N)N2CCN(CC(=O)N3CCCC3)CC2)cc1OC (centres unmarked)"
system_name = "arterial mean blood pressure"
endpoint_result = "-2.5%"

[[record]]
compound = "COc1ccc(C(C#N)N2CCNCC2)cc1OC (centres unmarked)"
system_name = "arterial mean blood pressure"
endpoint_result = "-5.2%"

[[record]]
compound = "CCOC(=O)N1CCN(C(C#N)c2ccc(OC)c(OC)c2)CC1 (centres unmarked)"
system_name = "arterial mean blood pressure"
endpoint_result = "-3.0%"


Inquiry: What measured Changes (%) of basal values, arterial mean blood pressure goes with COc1ccc(C(C#N)N2CCCN(CC=Cc3ccccc3)CC2)cc1OC (centres unmarked) ?
Reply text: -3.8%

Inquiry: What measured Changes (%) of basal values, arterial mean blood pressure goes with COc1ccc(C(C#N)N2CCN(CC=Cc3ccccc3)CC2)cc1OC (centres unmarked) ?
Reply text: -3.0%
